# study conditions: FaSSIF, 24 h, 37 °C; 1440 min
parameter measured: Solubility (µg/mL)

Some compounds with recorded Solubility:
# compound, result value
records = [
    ("C=CC(=O)Nc1cc(Nc2ncc(C(=O)OC(C)C)c(-c3cn(C)c4ccccc34)n2)c(OC)cc1N(C)[C@@H]1[C@@H]2CN(C)C[C@@H]21 [Mesylate crystalline form I]", 3410),
    ("C=CC(=O)Nc1cc(Nc2ncc(C(=O)OC(C)C)c(-c3cn(C)c4ccccc34)n2)c(OC)cc1N(C)[C@@H]1[C@@H]2CN(C)C[C@@H]21 [Citrate crystalline form I]", 3990),
]

1. C=CC(=O)Nc1cc(Nc2ncc(C(=O)OC(C)C)c(-c3cn(C)c4ccccc34)n2)c(OC)cc1N(C)[C@@H]1[C@@H]2CN(C)C[C@@H]21 [Free base crystalline form I]
2. C=CC(=O)Nc1cc(Nc2ncc(C(=O)OC(C)C)c(-c3cn(C)c4ccccc34)n2)c(OC)cc1N(C)[C@@H]1[C@@H]2CN(C)C[C@@H]21 [Maleate crystalline form II]
Q) When 1 and 2 are compared, which has the higher number for Solubility? Your answer should be the label of the entry you select.
A) 2
(2: 3450 µg/mL, 1: 180 µg/mL)

###

# protocol summary: in vivo
# study conditions: rat, po, 30 mg/kg
parameter measured: Tmax (h)
Answer with a number only, understood to be in h.

Note to self: Tmax recorded for C=CC(=O)Nc1cc(Nc2ncc(C(=O)OC(C)C)c(-c3cn(C)c4ccccc34)n2)c(OC)cc1N(C)[C@@H]1[C@@H]2CN(C)C[C@@H]21 [Citrate crystalline form I] was 5

###

# study conditions: H2O, 2 h, 37 °C; 120 min
parameter measured: Solubility (µg/mL)

# compound, Solubility (µg/mL)
records = [
    ("C=CC(=O)Nc1cc(Nc2ncc(C(=O)OC(C)C)c(-c3cn(C)c4ccccc34)n2)c(OC)cc1N(C)[C@@H]1[C@@H]2CN(C)C[C@@H]21 [Citrate crystalline form I]", 1990),
]

a. C=CC(=O)Nc1cc(Nc2ncc(C(=O)OC(C)C)c(-c3cn(C)c4ccccc34)n2)c(OC)cc1N(C)[C@@H]1[C@@H]2CN(C)C[C@@H]21 [Free base crystalline form I]
b. C=CC(=O)Nc1cc(Nc2ncc(C(=O)OC(C)C)c(-c3cn(C)c4ccccc34)n2)c(OC)cc1N(C)[C@@H]1[C@@H]2CN(C)C[C@@H]21 [Maleate crystalline form II]
Q) Between the entries labeled a and b , whose measured Solubility is lower? Your answer should be the label of the entry you select.
A) a
(a: 10 µg/mL, b: 1620 µg/mL)

###

# protocol summary: physchem
# study conditions: dmso
parameter measured: Solubility

Note to self: Solubility recorded for C=CC(=O)Nc1cc(Nc2ncc(C(=O)OC(C)C)c(-c3cn(C)c4ccccc34)n2)c(OC)cc1N(C)[C@@H]1[C@@H]2CN(C)C[C@@H]21 [Free base crystalline form I] was 2600 to 2930 µg/mL

###

# protocol summary: physchem
# study conditions: sgf
parameter measured: solubility at 2 h

Note to self: solubility at 2 h recorded for C=CC(=O)Nc1cc(Nc2ncc(C(=O)OC(C)C)c(-c3cn(C)c4ccccc34)n2)c(OC)cc1N(C)[C@@H]1[C@@H]2CN(C)C[C@@H]21 [Mesylate crystalline form I] was > 5000 µg/mL

###

# protocol summary: physchem
# study conditions: thf
parameter measured: Solubility

Note to self: Solubility recorded for C=CC(=O)Nc1cc(Nc2ncc(C(=O)OC(C)C)c(-c3cn(C)c4ccccc34)n2)c(OC)cc1N(C)[C@@H]1[C@@H]2CN(C)C[C@@H]21 [Free base crystalline form I] was 2550 to 3190 µg/mL

###

# protocol summary: physchem
# study conditions: meoh
parameter measured: Solubility

Note to self: Solubility recorded for C=CC(=O)Nc1cc(Nc2ncc(C(=O)OC(C)C)c(-c3cn(C)c4ccccc34)n2)c(OC)cc1N(C)[C@@H]1[C@@H]2CN(C)C[C@@H]21 [Free base crystalline form I] was < 400 µg/mL

###

# study conditions: FaSSIF, 2 h, 37 °C; 120 min
parameter measured: Solubility

# molecule, Solubility
measured = [
    ("C=CC(=O)Nc1cc(Nc2ncc(C(=O)OC(C)C)c(-c3cn(C)c4ccccc34)n2)c(OC)cc1N(C)[C@@H]1[C@@H]2CN(C)C[C@@H]21 [Mesylate crystalline form I]", "> 5000 µg/mL"),
    ("C=CC(=O)Nc1cc(Nc2ncc(C(=O)OC(C)C)c(-c3cn(C)c4ccccc34)n2)c(OC)cc1N(C)[C@@H]1[C@@H]2CN(C)C[C@@H]21 [Free base crystalline form I]", "130 µg/mL"),
    ("C=CC(=O)Nc1cc(Nc2ncc(C(=O)OC(C)C)c(-c3cn(C)c4ccccc34)n2)c(OC)cc1N(C)[C@@H]1[C@@H]2CN(C)C[C@@H]21 [Citrate crystalline form I]", "> 5000 µg/mL"),
]

Shifting focus to the molecule that follows.
Note to self: Solubility recorded for C=CC(=O)Nc1cc(Nc2ncc(C(=O)OC(C)C)c(-c3cn(C)c4ccccc34)n2)c(OC)cc1N(C)[C@@H]1[C@@H]2CN(C)C[C@@H]21 [Maleate crystalline form II] was > 5030 µg/mL

###

# protocol summary: physchem
# study conditions: dce
parameter measured: Solubility

Note to self: Solubility recorded for C=CC(=O)Nc1cc(Nc2ncc(C(=O)OC(C)C)c(-c3cn(C)c4ccccc34)n2)c(OC)cc1N(C)[C@@H]1[C@@H]2CN(C)C[C@@H]21 [Free base crystalline form I] was 61.8 to 124 mg/mL

###

# protocol summary: physchem
# study conditions: ipac
parameter measured: Solubility

Note to self: Solubility recorded for C=CC(=O)Nc1cc(Nc2ncc(C(=O)OC(C)C)c(-c3cn(C)c4ccccc34)n2)c(OC)cc1N(C)[C@@H]1[C@@H]2CN(C)C[C@@H]21 [Free base crystalline form I] was < 300 µg/mL

###

# protocol summary: physchem
# study conditions: acetonitrile
parameter measured: Solubility

Note to self: Solubility recorded for C=CC(=O)Nc1cc(Nc2ncc(C(=O)OC(C)C)c(-c3cn(C)c4ccccc34)n2)c(OC)cc1N(C)[C@@H]1[C@@H]2CN(C)C[C@@H]21 [Free base crystalline form I] was 930 to 1010 µg/mL

###

# study conditions: H2O, 0.5 h, 37 °C; 30 min
parameter measured: Solubility (µg/mL)

# compound, Solubility / µg/mL
records = [
    ("C=CC(=O)Nc1cc(Nc2ncc(C(=O)OC(C)C)c(-c3cn(C)c4ccccc34)n2)c(OC)cc1N(C)[C@@H]1[C@@H]2CN(C)C[C@@H]21 [Citrate crystalline form I]", 1910),
]

P. C=CC(=O)Nc1cc(Nc2ncc(C(=O)OC(C)C)c(-c3cn(C)c4ccccc34)n2)c(OC)cc1N(C)[C@@H]1[C@@H]2CN(C)C[C@@H]21 [Maleate crystalline form II]
Q. C=CC(=O)Nc1cc(Nc2ncc(C(=O)OC(C)C)c(-c3cn(C)c4ccccc34)n2)c(OC)cc1N(C)[C@@H]1[C@@H]2CN(C)C[C@@H]21 [Free base crystalline form I]
Q) Between the entries labeled P and Q , whose measured Solubility is lower? Your answer should be the label of the entry you select.
A) Q
(Q: 10 µg/mL, P: 1640 µg/mL)

###

# protocol summary: physchem
# study conditions: mtbe
parameter measured: Solubility

Note to self: Solubility recorded for C=CC(=O)Nc1cc(Nc2ncc(C(=O)OC(C)C)c(-c3cn(C)c4ccccc34)n2)c(OC)cc1N(C)[C@@H]1[C@@H]2CN(C)C[C@@H]21 [Free base crystalline form I] was < 330 µg/mL

###

# protocol summary: physchem
# study conditions: fessif
parameter measured: solubility at 2 h

Note to self: solubility at 2 h recorded for C=CC(=O)Nc1cc(Nc2ncc(C(=O)OC(C)C)c(-c3cn(C)c4ccccc34)n2)c(OC)cc1N(C)[C@@H]1[C@@H]2CN(C)C[C@@H]21 [Mesylate crystalline form I] was > 5010 µg/mL

###

# protocol summary: physchem
# study conditions: ethanol
parameter measured: Solubility

Note to self: Solubility recorded for C=CC(=O)Nc1cc(Nc2ncc(C(=O)OC(C)C)c(-c3cn(C)c4ccccc34)n2)c(OC)cc1N(C)[C@@H]1[C@@H]2CN(C)C[C@@H]21 [Free base crystalline form I] was < 300 µg/mL

###

# protocol summary: physchem
# study conditions: water
parameter measured: Solubility

Note to self: Solubility recorded for C=CC(=O)Nc1cc(Nc2ncc(C(=O)OC(C)C)c(-c3cn(C)c4ccccc34)n2)c(OC)cc1N(C)[C@@H]1[C@@H]2CN(C)C[C@@H]21 [Free base crystalline form I] was < 270 µg/mL

###

# protocol summary: physchem
# study conditions: cyclohexane
parameter measured: Solubility

Note to self: Solubility recorded for C=CC(=O)Nc1cc(Nc2ncc(C(=O)OC(C)C)c(-c3cn(C)c4ccccc34)n2)c(OC)cc1N(C)[C@@H]1[C@@H]2CN(C)C[C@@H]21 [Free base crystalline form I] was < 330 µg/mL
